Quick reference: S/N vs BSA of the listed items.
TESTED_TARGET: T1, hVEGF-A (8-109) (human, UniProt P15692 214-315)
T1 sequence (looked up): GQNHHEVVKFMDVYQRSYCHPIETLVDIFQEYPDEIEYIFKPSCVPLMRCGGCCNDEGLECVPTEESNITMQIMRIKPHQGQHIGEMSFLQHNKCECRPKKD
ASSAY_INFO: spot phage ELISA
Protocol: After four rounds of binding selection, individual phage clones were picked and inoculated into 450 μl 2YT media containing 50 µg/ml Carbenecillin and M13-KO7 helper phage in 96-well blocks, which were grown at 37° C. overnight. […] The plates were washed and bound phage was detected with anti-M13-HRP followed by TMB substrate. In these assays, phage binding to BSA alone was tested in parallel to assess background binding. […] Positive clones were subjected to DNA sequence analysis.

Need S/N vs BSA, item GCNIMLPFWGCGWDQFCLAGCVCQYYQSCG (designed binder) [VEGF_CKP9.54.51] 44.5

Need S/N vs BSA, item GCNIMLPFWGCNRDFLCLAGCVCQYYQSCG (designed binder) [VEGF_CKP9.54.48] 34.9

Need S/N vs BSA, item GCQLMQPFWGCKQDSDCLAGCVCRWYNSCG (designed binder) [VEGF_CKP9.L5.7] 18.9

Need S/N vs BSA, item GCPTTRFKQYCKQDSDCLAGCVCGPNGFCG (designed binder) [VEGF_CKP6] 51.9
